- TARGET: hERG (Homo sapiens (Human))
- ASSAY_INFO: Test for evaluating hERG inhibition (QPatch HT, CHO cell strain stably expressing hERG)
- STATED_CONDITIONS: read-out: Binding inhibition (IC50, μM); concentration at which 50% of the hERG current was inhibited; CHO cells stably expressing hERG, QPatch HT
ENDPOINT: log10(IC50) (log10 of the value in µM)

- COMPOUND: "Cc1nccn1CCN1CCC2(CC1)COC1c3cc(Cl)ccc3OC(C)(C)C1C2 (centres unmarked) [Example 47]"
  log10(IC50): 0.28
- COMPOUND: "CC1(C)Oc2cc(Cl)ccc2C2OCC3(CCN(CCn4ccnc4CCN)CC3)CC21 (centres unmarked)"
  log10(IC50): 0.80
- COMPOUND: "CC1(C)Oc2ccc(Cl)cc2C2OCC3(CCN(Cc4c[nH]cn4)CC3)CC21 (centres unmarked)"
  log10(IC50): 0.41
- COMPOUND: "CC1(C)Oc2ccc(Cl)cc2C2OCC3(CCN(Cc4ncc[nH]4)CC3)CC21 (centres unmarked)"
  log10(IC50): 0.54
- COMPOUND: "Cc1nc[nH]c1CN1CCC2(CC1)COC1c3ccc(Cl)cc3OC(C)(C)C1C2 (centres unmarked)"
  log10(IC50): 0.15
- COMPOUND: "Cc1nc[nH]c1CN1CCC2(CC1)COC1c3ccc(Cl)cc3OCC1C2 (single isomer, unassigned) [Example 64a]"
  log10(IC50): -0.22
- COMPOUND: "CC1(C)Oc2cc(Cl)ccc2C2OCC3(CCN(CCn4ccnc4)CC3)CC21 (centres unmarked) [Example 42]"
  log10(IC50): 0.15
- COMPOUND: "Cn1cncc1CN1CCC2(CC1)COC1c3cccc(Cl)c3OC(C)(C)C1C2 (centres unmarked)"
  log10(IC50): 0.15
- COMPOUND: "Cc1nc[nH]c1CN1CCC2(CC1)COC1c3cc(F)ccc3OC(C)(C)C1C2 (centres unmarked) [Example 22]"
  log10(IC50): 0.20
- COMPOUND: "Cc1nc[nH]c1CN1CCC2(CC1)COC1c3cc(F)ccc3OC(C)(C)C1C2 (centres unmarked) [Example 23]"
  log10(IC50): 0.15
- COMPOUND: "Cc1nc(CN2CCC3(CC2)COC2c4cc(Cl)ccc4OC(C)(C)C2C3)c[nH]1 (centres unmarked)"
  log10(IC50): 0.23

* * *

- TARGET: hERG (Homo sapiens (Human), UniProt Q12809)
- Sequence (Q12809 whole entry): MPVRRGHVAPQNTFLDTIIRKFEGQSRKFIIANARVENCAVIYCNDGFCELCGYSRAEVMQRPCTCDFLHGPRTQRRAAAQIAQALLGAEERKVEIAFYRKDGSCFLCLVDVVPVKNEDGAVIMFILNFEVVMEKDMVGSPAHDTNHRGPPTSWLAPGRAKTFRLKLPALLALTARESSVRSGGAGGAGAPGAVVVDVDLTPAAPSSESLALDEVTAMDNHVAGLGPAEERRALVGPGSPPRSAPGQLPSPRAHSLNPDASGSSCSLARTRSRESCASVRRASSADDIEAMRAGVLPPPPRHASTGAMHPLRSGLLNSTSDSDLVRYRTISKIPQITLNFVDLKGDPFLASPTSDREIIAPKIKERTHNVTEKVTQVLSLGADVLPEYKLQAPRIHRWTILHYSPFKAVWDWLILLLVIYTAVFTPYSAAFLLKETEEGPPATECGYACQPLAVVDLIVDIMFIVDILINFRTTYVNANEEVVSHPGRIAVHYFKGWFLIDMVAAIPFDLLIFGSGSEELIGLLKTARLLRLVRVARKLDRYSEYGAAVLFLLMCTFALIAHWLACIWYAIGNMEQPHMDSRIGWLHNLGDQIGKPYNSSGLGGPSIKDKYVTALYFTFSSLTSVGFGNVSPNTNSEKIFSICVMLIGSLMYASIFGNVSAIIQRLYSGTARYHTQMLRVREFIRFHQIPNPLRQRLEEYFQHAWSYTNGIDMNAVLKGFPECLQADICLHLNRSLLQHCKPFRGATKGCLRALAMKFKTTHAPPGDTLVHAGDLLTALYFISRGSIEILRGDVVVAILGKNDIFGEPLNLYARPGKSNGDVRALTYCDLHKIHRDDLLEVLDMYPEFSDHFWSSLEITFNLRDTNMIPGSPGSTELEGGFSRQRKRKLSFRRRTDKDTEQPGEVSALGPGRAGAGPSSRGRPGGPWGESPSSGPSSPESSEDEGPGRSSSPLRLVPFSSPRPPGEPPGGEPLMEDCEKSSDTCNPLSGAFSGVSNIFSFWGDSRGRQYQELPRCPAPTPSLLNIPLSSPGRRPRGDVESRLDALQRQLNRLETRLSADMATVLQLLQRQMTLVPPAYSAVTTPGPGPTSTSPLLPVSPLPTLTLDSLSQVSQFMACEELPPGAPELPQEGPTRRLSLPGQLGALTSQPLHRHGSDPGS
- ASSAY_INFO: Test for evaluating hERG inhibition (QPatch HT, CHO cell strain stably expressing hERG)

- COMPOUND: "Cc1nc[nH]c1CN1CCC2(CC1)COC1c3ccc(Cl)cc3OCC1C2 (racemic) [Example 64]"
  RESULT_UNITS: "nM"
  BOUND_TYPE: "="
  IC50: 400
- COMPOUND: "Cc1nc[nH]c1CN1CCC2(CC1)COC1c3ccc(Cl)cc3OC(C)(C)C1C2 (racemic) [Example 18]"
  RESULT_UNITS: "nM"
  BOUND_TYPE: "="
  IC50: 600
- COMPOUND: "CC1(C)Oc2cc(Cl)ccc2C2OCC3(CCN(CCn4ccnc4)CC3)CC21 (racemic) [Example 38]"
  RESULT_UNITS: "nM"
  BOUND_TYPE: "="
  IC50: 800
- COMPOUND: "Cc1nccn1CC(=O)N1CCC2(CC1)COC1c3cc(Cl)ccc3OC(C)(C)C1C2 (racemic) [Example 1]"
  RESULT_UNITS: "nM"
  BOUND_TYPE: "<"
  IC50: 300

Where do the numbers come from? From patent US10807993B2.
